Measured recovery at 90 min, 40 µM of individual entries
experiment: Bidirectional transport across MDCK-pHaMDR cell monolayer (in vitro BBB model); details: dog, MDCK-MDR1, Recovery Rate, BL→AP, 40 μM, 90 min

molecule | recovery at 90 min, 40 µM (%)
C=C[C@H]1CN2CC[C@@]3(C(=O)Nc4ccccc43)[C@@H]2C[C@@H]1/C(=C\OC)C(=O)OC [alkaloid 4, isocorynoxeine] | 98.5
CC[C@H]1CN2CC[C@]3(C(=O)Nc4ccccc43)[C@@H]2C[C@@H]1/C(=C\OC)C(=O)OC [alkaloid 1, rhynchophylline] | 102
C=C[C@H]1CN2CC[C@]3(C(=O)Nc4ccccc43)[C@@H]2C[C@@H]1/C(=C\OC)C(=O)OC [alkaloid 3, corynoxeine] | 99.6
CC[C@H]1CN2CCc3c([nH]c4ccccc34)[C@H]2C[C@@H]1/C(=C\OC)C(=O)OC [alkaloid 5, hirsutine] | 104
C=C[C@H]1CN2CCc3c([nH]c4ccccc34)[C@H]2C[C@@H]1/C(=C\OC)C(=O)OC [alkaloid 6, hirsuteine] | 104
CC[C@H]1CN2CC[C@@]3(C(=O)Nc4ccccc43)[C@@H]2C[C@@H]1/C(=C\OC)C(=O)OC [alkaloid 2, isorhynchophylline] | 101

====

Test: Stability of QC samples after three freeze-thaw cycles (HPLC)
Format: physicochemical
Conditions: QC sample 120 μM, three freeze (−20 °C)-thaw cycles, percentage remains
Description: The stock solutions of the six alkaloids were diluted to three concentrations (low, medium and high) as quality control (QC) samples. Accuracy, precision and stability of QC samples were validated. Accuracy and intraday precision were evaluated by determining the QC samples in three replicates on the same day, while interday precision was assessed by repeated analysis of the same QC samples over three consecutive days. Precision was estimated by RSD, which should not exceed 15%. […]

compound | Stability
C=C[C@H]1CN2CCc3c([nH]c4ccccc34)[C@H]2C[C@@H]1/C(=C\OC)C(=O)OC [alkaloid 6, hirsuteine] | 102.23 ± 4.19%
CC[C@H]1CN2CC[C@@]3(C(=O)Nc4ccccc43)[C@@H]2C[C@@H]1/C(=C\OC)C(=O)OC [alkaloid 2, isorhynchophylline] | 105.21 ± 3.28%
CC[C@H]1CN2CCc3c([nH]c4ccccc34)[C@H]2C[C@@H]1/C(=C\OC)C(=O)OC [alkaloid 5, hirsutine] | 100.5 ± 4.86%
C=C[C@H]1CN2CC[C@]3(C(=O)Nc4ccccc43)[C@@H]2C[C@@H]1/C(=C\OC)C(=O)OC [alkaloid 3, corynoxeine] | 101.52 ± 2.26%
CC[C@H]1CN2CC[C@]3(C(=O)Nc4ccccc43)[C@@H]2C[C@@H]1/C(=C\OC)C(=O)OC [alkaloid 1, rhynchophylline] | 102.59 ± 3.38%
C=C[C@H]1CN2CC[C@@]3(C(=O)Nc4ccccc43)[C@@H]2C[C@@H]1/C(=C\OC)C(=O)OC [alkaloid 4, isocorynoxeine] | 102.02 ± 2.43%

====

experiment: Bidirectional transport across MDCK-pHaMDR cell monolayer (in vitro BBB model); details: dog, MDCK-MDR1, Recovery Rate, AP→BL, 40 μM, 90 min
Measured recovery at 90 min, 40 µM of individual entries

compound | recovery at 90 min, 40 µM [%]
C=C[C@H]1CN2CCc3c([nH]c4ccccc34)[C@H]2C[C@@H]1/C(=C\OC)C(=O)OC [alkaloid 6, hirsuteine] | 88.9
C=C[C@H]1CN2CC[C@]3(C(=O)Nc4ccccc43)[C@@H]2C[C@@H]1/C(=C\OC)C(=O)OC [alkaloid 3, corynoxeine] | 96.4
CC[C@H]1CN2CC[C@@]3(C(=O)Nc4ccccc43)[C@@H]2C[C@@H]1/C(=C\OC)C(=O)OC [alkaloid 2, isorhynchophylline] | 94.3
C=C[C@H]1CN2CC[C@@]3(C(=O)Nc4ccccc43)[C@@H]2C[C@@H]1/C(=C\OC)C(=O)OC [alkaloid 4, isocorynoxeine] | 93
CC[C@H]1CN2CC[C@]3(C(=O)Nc4ccccc43)[C@@H]2C[C@@H]1/C(=C\OC)C(=O)OC [alkaloid 1, rhynchophylline] | 99.9
CC[C@H]1CN2CCc3c([nH]c4ccccc34)[C@H]2C[C@@H]1/C(=C\OC)C(=O)OC [alkaloid 5, hirsutine] | 89.3

# credit: paper PMC6150385
